Catalogue of IC50 values
Target: human A2B receptors (Homo sapiens)
Construct: expressed in transfected cells; host or cells: HEK293
Sequence (P29275 1-332): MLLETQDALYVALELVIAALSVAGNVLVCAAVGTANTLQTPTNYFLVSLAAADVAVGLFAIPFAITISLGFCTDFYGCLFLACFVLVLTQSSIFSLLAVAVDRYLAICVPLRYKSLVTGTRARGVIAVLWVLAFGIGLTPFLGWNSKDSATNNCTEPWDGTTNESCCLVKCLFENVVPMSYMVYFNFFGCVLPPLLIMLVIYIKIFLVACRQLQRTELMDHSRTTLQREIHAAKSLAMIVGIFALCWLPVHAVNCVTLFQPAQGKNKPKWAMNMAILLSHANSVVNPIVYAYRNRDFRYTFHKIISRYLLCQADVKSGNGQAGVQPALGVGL
Assay: Functional human A2B receptor activity, recombinant HEK293 cells, cAMP (HTRF)
Type: cell-based
Details: read-out: A2B (Category)

> print(dat)
                                   compound                     subject.of.test  endpoint  value.reported
1  C[C@]1(O)[C@@H]2CC[C@H]1CN(C(=O)c1cc3c(cn1)c(-c1coc4ccccc14)nn3CC(F)(F)F)C2  human A2B receptors (Homo sapiens)      IC50       < 1000 nM
2  CS(=O)(=O)Cn1nc(-c2coc3ccccc23)c2cnc(C(=O)N3CCCC(O)CC3)cc21 (stereo not shown)  human A2B receptors (Homo sapiens)      IC50        < 100 nM
3  CS(=O)(=O)Cn1nc(-c2coc3ccccc23)c2cnc(C(=O)N3[C@@H]4CC[C@H]3C[C@@H](O)C4)cc21  human A2B receptors (Homo sapiens)      IC50        < 100 nM
4  O=C(c1cc2c(cn1)c(-c1cnn3ccccc13)nn2CC(F)(F)F)N1CC2CCC(C2)C1  human A2B receptors (Homo sapiens)      IC50        < 100 nM
5  O=C(c1cc2c(cn1)c(-c1cnc3ccc(F)cn13)nn2CC(F)(F)F)N1CCCCCC1  human A2B receptors (Homo sapiens)      IC50        < 100 nM

# input What measured IC50 goes with O=C(c1cc2c(cn1)c(-c1coc3ccccc13)nn2CC(F)(F)F)N1CCCCCC1 ?
# output < 100 nM

# input Given CS(=O)(=O)Cn1nc(-c2coc3ccccc23)c2cnc(C(=O)N3CCCC(O)C3)cc21 (stereo not shown) , state its recorded IC50.
# output < 1000 nM

* * *

Target: human A2B receptors (Homo sapiens, UniProt P29275)
Construct: expressed in transfected cells; host or cells: HEK293
Sequence (P29275 1-332): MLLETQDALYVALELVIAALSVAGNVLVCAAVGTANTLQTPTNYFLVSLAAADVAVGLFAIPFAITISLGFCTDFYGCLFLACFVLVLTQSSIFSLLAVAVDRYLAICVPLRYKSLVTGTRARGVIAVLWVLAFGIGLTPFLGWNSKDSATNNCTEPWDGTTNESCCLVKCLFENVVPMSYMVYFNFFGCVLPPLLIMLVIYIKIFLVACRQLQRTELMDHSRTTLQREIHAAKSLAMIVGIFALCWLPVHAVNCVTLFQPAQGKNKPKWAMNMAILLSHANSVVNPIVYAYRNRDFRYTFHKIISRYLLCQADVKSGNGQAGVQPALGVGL
Assay: Functional human A2B receptor activity, recombinant HEK293 cells, cAMP (HTRF)
Type: cell-based
Settings: read-out: A2B (Category)
endpoint: IC50

> print(dat)
                                   compound  value.reported
1  O=C(c1cc2c(cn1)c(-c1cnc3c(F)cc(F)cn13)nn2CC(F)(F)F)N1CCOC2(CCC2)C1 [Compound 192]       < 1000 nM

# input Entry under review: CC1(C)CC(O)CCN1C(=O)c1cc2c(cn1)c(-c1coc3ccccc13)nn2CS(C)(=O)=O (stereo not drawn) [Compound 35] . Reported IC50?
# output < 1000 nM

# input If you can, please state the reported IC50 value of CS(=O)(=O)Cn1nc(-c2coc3ccccc23)c2cnc(C(=O)N3CC4CCC(C3)C4O)cc21 (stereo not drawn) [Compound 30] .
# output < 100 nM

# input # query: IC50 of entry O=C(c1cc2c(cn1)c(-c1cnc3c(F)cc(F)cn13)nn2CC(F)(F)F)N1CCC(C(F)F)CC1 [Compound 173]
# output < 1000 nM

* * *

Target: human A2B receptors (Homo sapiens, UniProt P29275)
Construct: expressed in transfected cells; host or cells: HEK293
Sequence (P29275 1-332): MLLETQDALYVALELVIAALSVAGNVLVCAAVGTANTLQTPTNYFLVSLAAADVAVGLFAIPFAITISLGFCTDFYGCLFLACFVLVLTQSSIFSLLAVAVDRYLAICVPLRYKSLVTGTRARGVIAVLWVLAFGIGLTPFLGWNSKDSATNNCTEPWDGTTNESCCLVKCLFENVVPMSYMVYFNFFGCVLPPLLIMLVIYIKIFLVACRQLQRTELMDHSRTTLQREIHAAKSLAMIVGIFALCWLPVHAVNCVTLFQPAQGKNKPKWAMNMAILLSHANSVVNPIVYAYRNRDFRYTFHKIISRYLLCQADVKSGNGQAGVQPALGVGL
Experiment: Functional human A2B receptor activity, recombinant HEK293 cells, cAMP (HTRF)
Format: cell-based
Details: read-out: A2B (Category)
pIC50: −log10 of the molar value.
Below: a set of entries, each annotated with reported pIC50.

Below are worked cases with known answers.
> print(dat)
                                   compound  value.reported
1  CC1(C)CC(O)CCN1C(=O)c1cc2c(cn1)c(-c1coc3ccccc13)nn2CC(F)(F)F (stereo not drawn)          > 6.00
2  CS(=O)(=O)Cn1nc(-c2cnn3ccccc23)c2cnc(C(=O)N3CC4CCC(C3)O4)cc21          > 6.00

# input Look at this compound and give its reported pIC50. Cc1cc(C(N)=O)cn2c(-c3nn(CC(F)(F)F)c4cc(C(=O)N5CCCCCC5)ncc34)cnc12
# output > 6.00

* * *

# pIC50 per record follows
Molecular target: human A2B receptors (Homo sapiens)
Construct: expressed in transfected cells; host or cells: HEK293
Sequence (P29275 1-332): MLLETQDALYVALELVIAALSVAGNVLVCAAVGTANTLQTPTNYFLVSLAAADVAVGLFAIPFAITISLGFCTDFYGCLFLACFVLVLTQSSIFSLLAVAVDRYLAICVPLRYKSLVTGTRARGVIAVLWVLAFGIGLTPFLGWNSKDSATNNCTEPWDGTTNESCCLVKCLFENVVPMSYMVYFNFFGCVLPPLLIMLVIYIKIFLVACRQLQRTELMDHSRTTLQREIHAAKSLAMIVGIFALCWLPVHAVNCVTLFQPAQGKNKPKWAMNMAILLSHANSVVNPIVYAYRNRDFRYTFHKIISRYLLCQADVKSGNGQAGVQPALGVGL
Assay: Functional human A2B receptor activity, recombinant HEK293 cells, cAMP (HTRF)
Format: cell-based
Conditions: read-out: A2B (Category)
pIC50: −log10 of the molar value.

Take a look at these entries with their results.
> print(dat)
                                   compound                     subject.of.test  endpoint  value.reported
1  CS(=O)(=O)Cn1nc(-c2coc3ccccc23)c2cnc(C(=O)N3CC4CCC(C4)C3)cc21 [Compound 19]  human A2B receptors (Homo sapiens)     pIC50          > 7.00
2  Cn1nc(-c2cnc3ccc(F)cn23)c2cnc(C(=O)N3CCCCCC3)cc21 [Compound 41]  human A2B receptors (Homo sapiens)     pIC50          > 6.00
3  COc1ccc2ncc(-c3nn(CC(F)(F)F)c4cc(C(=O)N5CCCCCC5)ncc34)n2c1 [Compound 59]  human A2B receptors (Homo sapiens)     pIC50          > 6.00
4  O=C(c1cc2c(cn1)c(-c1coc3ccccc13)nn2CC(F)(F)F)N1CCC(O)CC1 [Compound 207]  human A2B receptors (Homo sapiens)     pIC50          > 7.00
5  O=C(c1cc2c(cn1)c(-c1cnn3ccncc13)nn2CC(F)(F)F)N1CCCOCC1 [Compound 249]  human A2B receptors (Homo sapiens)     pIC50          > 6.00

# input Form field: reported pIC50 of O=C(c1cc2c(cn1)c(-c1coc3ccccc13)nn2CC(F)F)N1CCCOCC1 [Compound 103]
# output > 6.00

* * *

Molecular target: human A2B receptors (Homo sapiens)
Construct: expressed in transfected cells; host or cells: HEK293
Sequence (P29275 1-332): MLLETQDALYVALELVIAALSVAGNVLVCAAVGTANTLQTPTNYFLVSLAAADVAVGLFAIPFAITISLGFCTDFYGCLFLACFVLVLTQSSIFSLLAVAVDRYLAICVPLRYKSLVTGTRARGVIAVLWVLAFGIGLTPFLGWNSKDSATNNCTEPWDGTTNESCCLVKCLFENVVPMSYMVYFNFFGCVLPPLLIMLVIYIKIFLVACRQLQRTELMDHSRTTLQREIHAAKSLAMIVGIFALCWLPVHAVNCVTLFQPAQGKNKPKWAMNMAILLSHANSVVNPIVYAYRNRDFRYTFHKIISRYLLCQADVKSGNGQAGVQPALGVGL
Experiment: Functional human A2B receptor activity, recombinant HEK293 cells, cAMP (HTRF)
Type: cell-based
Details: read-out: A2B (Category)
pIC50: −log10 of the molar value.
Some compounds, each annotated with its measured pIC50.

Solved cases below.
> print(dat)
                                   compound  value.reported
1  CCCn1nc(-c2coc3ccccc23)c2cnc(C(=O)N3CCCOCC3)cc21          > 6.00
2  O=C(c1cc2c(cn1)c(-c1coc3ccc(F)cc13)nn2CC(F)(F)F)N1CCCC(O)CC1 (centres unmarked)          > 7.00
3  O=C(c1cc2c(cn1)c(-c1cnc3ncc(F)cn13)nn2CC(F)(F)F)N1CCCCCC1          > 6.00
4  [2H]C1([2H])CCOCCN1C(=O)c1cc2c(cn1)c(-c1cnc3c(F)cc(F)cn13)nn2CC(F)(F)F          > 7.00
5  O=C(c1cc2c(cn1)c(-c1cnc3ccc(O)cn13)nn2CC(F)(F)F)N1CCCCCC1          > 6.00
6  O=C(c1cc2c(cn1)c(-c1cnc3c(F)cc(F)cn13)nn2CC(F)(F)F)N1CCC(O)(c2cccnc2)CC1          > 6.00
7  O=C(c1cc2c(cn1)c(-c1coc3ccccc13)nn2CC(F)(F)F)N1CCOCC(F)(F)C1          > 7.00
8  CSCn1nc(-c2cnc3c(F)cc(F)cn23)c2cnc(C(=O)N3CC4CCC(C4)C3)cc21          > 7.00

# input Which pIC50 is reported for this compound? O=C(c1cc2c(cn1)c(-c1cnc3c(F)cc(F)cn13)nn2CC(F)(F)F)N1CCOCC(O)C1 (centres unmarked)
# output > 6.00

# input Item under review: CCCn1nc(-c2coc3ccccc23)c2cnc(C(=O)N3[C@@H]4CC[C@H]3C[C@@H](O)C4)cc21 . Reported pIC50?
# output > 6.00
